Field Ki: reported value for Muscarinic acetylcholine receptor M1 (Rattus norvegicus, UniProt P08482); entries drawn from several documents.
Experimental System: Muscarinic acetylcholine receptor M1 (Rattus norvegicus, UniProt P08482)
Sequence (P08482 whole entry): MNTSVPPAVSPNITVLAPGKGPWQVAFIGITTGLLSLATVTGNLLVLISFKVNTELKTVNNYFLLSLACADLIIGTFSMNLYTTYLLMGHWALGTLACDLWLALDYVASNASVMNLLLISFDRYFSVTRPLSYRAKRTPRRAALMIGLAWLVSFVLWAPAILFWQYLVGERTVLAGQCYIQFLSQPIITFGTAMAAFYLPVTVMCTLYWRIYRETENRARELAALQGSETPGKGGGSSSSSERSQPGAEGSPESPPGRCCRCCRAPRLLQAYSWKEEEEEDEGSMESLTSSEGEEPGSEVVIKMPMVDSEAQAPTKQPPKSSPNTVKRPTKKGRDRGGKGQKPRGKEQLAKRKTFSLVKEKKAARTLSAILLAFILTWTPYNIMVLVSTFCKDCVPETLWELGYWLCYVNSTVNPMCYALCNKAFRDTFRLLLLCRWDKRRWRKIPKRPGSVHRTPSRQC
Label TRUE when Ki is strictly below 5 µM; at or above that, label FALSE.

// known answers, use as guide
Quick check: does CCCCCCCCCC(=O)N/N=C1\CC2(CCN(C)CC2)OC1C (stereo unspecified) have Ki under 5 µM?
FALSE

Consider the compound `Cn1ncc(C2=CCCNC2)n1` . Is its Ki strictly less than 5 µM?
TRUE

Criterion: Ki strictly below 5 µM. Is it met by CN1CCC=C(C2CN(C(=S)Nc3ccc(F)cc3)CCO2)C1 (stereo unspecified) ?
FALSE

Ki under 5 µM? Item: `CCCN1CCC=C(c2nnn(CC)n2)C1`
TRUE

Please check: Ki for CN1CCC=C(C2CN(C(=S)Nc3ccccc3)CCO2)C1 (stereo unspecified) , strictly under 5 µM or not?
FALSE

Others:
Say whether its Ki is strictly beneath 5 µM. Entry: `C[C@@H]1OC2(CCN(C)CC2)CC1=O`
TRUE

Strictly below 5 µM: is that where Ki of `CN(CCCCCCCCN(C)CCCCCCNCC(=O)N1c2ccccc2C(=O)Nc2cccnc21)CCCCCCNCC(=O)N1c2ccccc2C(=O)Nc2cccnc21` sits?
TRUE

Lab log: compare recorded Ki with 5 µM; is it strictly lower for `CN1CCN(c2cc(-c3ccccc3)cnn2)CC1` ?
FALSE

* * *

Here is a set of compounds with reported Ki for Muscarinic acetylcholine receptor M1 (Rattus norvegicus), compiled from the literature.

Worked cases, Ki given:
The reported Muscarinic acetylcholine receptor M1 (Rattus norvegicus) Ki of CCCCCC(=O)N/N=C1\CC2(CCN(C)CC2)OC1C (centres undefined) is 25000 nM

`CN(CCCCCCN)CCCCCCCCN(C)CCCCCCN(CC(=O)N1c2ccccc2C(=O)Nc2cccnc21)CC(=O)N1c2ccccc2C(=O)Nc2cccnc21.O=C(O)C(=O)O.O=C(O)C(=O)O.O=C(O)C(=O)O.O=C(O)C(=O)O` on Muscarinic acetylcholine receptor M1 (Rattus norvegicus) gives Ki = 2.51 nM

New cases:
Entry `CCN1C(=O)OC2(CCN(Cc3ccccc3)CC2)C1=O` under Muscarinic acetylcholine receptor M1 (Rattus norvegicus) had Ki of > 10000 nM

Form field Ki for item `CN(CCCCCCCCN(C)C(=O)CCCCCNCC(=O)N1c2ccccc2C(=O)Nc2cccnc21)C(=O)CCCCCN` on Muscarinic acetylcholine receptor M1 (Rattus norvegicus): 316 nM

Record `CCCCCCn1nnc(C2=CCCN(C)C2)n1` / Muscarinic acetylcholine receptor M1 (Rattus norvegicus), Ki recorded as 32 nM

`C=Cn1nnc(C2=CCCN(C)C2)n1` tested on Muscarinic acetylcholine receptor M1 (Rattus norvegicus) gave Ki: 120 nM

Assay Muscarinic acetylcholine receptor M1 (Rattus norvegicus), sample CCCCCCC(=O)N/N=C1\CC2(CCN(C)CC2)OC1C (centres undefined) , Ki read: 25000 nM

Noted Ki for CC1OC2(CCN(C)CC2)C/C1=N\NC(=O)C1CCCCC1 (centres undefined) , tested on Muscarinic acetylcholine receptor M1 (Rattus norvegicus): 38000 nM

# value of Ki, Muscarinic acetylcholine receptor M1 (Rattus norvegicus), item `CCN1CCC=C(c2nnn(CC)n2)C1` = 140 nM

Record `C=Cn1ncc(C2=CCCN(C)C2)n1` has Muscarinic acetylcholine receptor M1 (Rattus norvegicus) Ki equal to 40 nM

* * *

Experimental System: Muscarinic acetylcholine receptor M1 (Rattus norvegicus, UniProt P08482)
Sequence (P08482 whole entry): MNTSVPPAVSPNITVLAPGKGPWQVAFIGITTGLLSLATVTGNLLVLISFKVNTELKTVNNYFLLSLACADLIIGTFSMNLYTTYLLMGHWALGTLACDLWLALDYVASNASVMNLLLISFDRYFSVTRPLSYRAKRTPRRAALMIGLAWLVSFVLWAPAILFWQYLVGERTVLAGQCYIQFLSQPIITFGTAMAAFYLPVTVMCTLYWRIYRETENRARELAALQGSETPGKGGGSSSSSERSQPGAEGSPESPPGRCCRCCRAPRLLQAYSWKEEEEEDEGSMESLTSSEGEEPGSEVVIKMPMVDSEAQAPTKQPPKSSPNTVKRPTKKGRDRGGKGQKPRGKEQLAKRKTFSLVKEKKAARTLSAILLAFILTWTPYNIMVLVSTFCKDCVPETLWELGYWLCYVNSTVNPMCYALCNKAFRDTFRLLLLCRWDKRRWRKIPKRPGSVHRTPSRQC
Record set: pKi | Muscarinic acetylcholine receptor M1 (Rattus norvegicus, UniProt P08482) | literature, multiple sources.
Bear in mind: pKi is minus log10 of a mol/L concentration; give just that figure.

Please review the entries below; each comes with its answer.
response.value for Cc1nccn1CC1CCc2c(c3ccccc3n2C)C1=O (stereo not drawn) (field: pKi) = 5.29

Input CC1OC2(CCN(C)CC2)C/C1=N\NC(=O)c1ccc(C2CCCCC2)cc1 (stereo not drawn) . Output pKi: 5.32

Recorded result, CCCC(=O)N(C)/N=C1\CC2(CCN(C)CC2)OC1C (stereo not drawn) , pKi: 4.80

Reported pKi for `CCCn1ncc(C2=CCCNC2)n1` was 7.11

Memo: `CN1CCC2(CC1)OC(=O)N(C(C)(C)C)C2=O` , reported pKi: 5.82

Per the records, this compound ( CC(C)CC(=O)N/N=C1\CC2(CCN(C)CC2)OC1C (stereo not drawn) ) has pKi equal to 4.05

// sample COc1ccc(NC(=S)N2CCOC(C3=CCCN(C)C3)C2)cc1 (stereo not drawn) , its pKi was 5.40

Would you kindly look at the next entry?
Recorded pKi (compound `CCCCn1nnc(C2=CCCN(C)C2)n1` ): 7.43

* * *

# pKi against Muscarinic acetylcholine receptor M1 (Rattus norvegicus, UniProt P08482), merged from multiple literature sources
Scale for pKi: -log10 of concentration given in mol/L; no unit attached.

pKi value, target or system Muscarinic acetylcholine receptor M1 (Rattus norvegicus, UniProt P08482), for `COc1cc(NC(=O)C2CC2)c(Cl)cc1C(=O)N[C@H]1CCN(Cc2ccccc2)C1` : 5.27

Value sought: pKi, system Muscarinic acetylcholine receptor M1 (Rattus norvegicus, UniProt P08482), item `C#CCn1ncc(C2=CCCN(C)C2)n1` . Result: 8.11

Note: attention shifts to another entry.
Reading of pKi for `CN(CCCCCCCCN(C)C(=O)CCCCCNCCCCC(=O)N1c2ccccc2C(=O)Nc2cccnc21)C(=O)CCCCCN` with Muscarinic acetylcholine receptor M1 (Rattus norvegicus, UniProt P08482): 7.20

* * *

Literature survey of pKi (system: UniProtKB P08482).
Scale: negative log10 of molar concentration, which is what pKi denotes.

Below are worked cases with known answers.
Quick note, pKi for Cc1ccc(C2SCC(=O)N2C2=CCCN(C)C2)cc1 (centres undefined) landed at 4.59

The reported pKi of the molecule `CN(CCCCCCCCN(C)CCCCCCN(CC(=O)N1c2ccccc2NC(=O)c2ccccc21)CC(=O)N1c2ccccc2NC(=O)c2ccccc21)CCCCCCNCC(=O)N1c2ccccc2NC(=O)c2ccccc21` was 9.02

Continuing:
Lookup result for CC1CC=C(c2nnn(C)n2)CN1 (centres undefined) ; measured pKi: 6.05

Entry under test: `C=CCn1ncc(C2=CCCN(C)C2)n1` . Its pKi was 8.20

pKi in this record for `CN1CCC=C(c2nnn(C)n2)C1` : 6.60

The molecule identified as CC1C=C(c2nnn(C)n2)CNC1 (centres undefined) registered its pKi at 6.74

Just so you know, measured pKi for CN1CCC=C(C2CN(C(=S)Nc3ccccc3Cl)CCO2)C1 (centres undefined) came out at 3.67

The molecule listed as CC1OC2(CCN(C)CC2)C/C1=N\NC(=O)CCCC1CCCCC1 (centres undefined) has a reported pKi of 4.87

# molecule `COc1ccccc1CNCCCCCCN(C)CCCCCCCCN(C)CCCCCCN(CC(=O)N1c2ccccc2C(=O)Nc2cccnc21)CC(=O)N1c2ccccc2C(=O)Nc2cccnc21.O=C(O)C(=O)O.O=C(O)C(=O)O.O=C(O)C(=O)O.O=C(O)C(=O)O` ; its pKi = 7.80

The molecule identified as `CCCCn1ncc(C2=CCCNC2)n1` registered its pKi at 7.00

Entry under test: CCCCCCCC(=O)N/N=C1\CC2(CCN(C)CC2)OC1C (centres undefined) . Its pKi was 5.02

Per the records, this molecule ( CC1OC2(CCN(C)CC2)C/C1=N\NC(=O)Cc1ccc2ccccc2c1 (centres undefined) ) has pKi equal to 5.00
